Numbers sourced from patent US5629322A.

Consider the following compounds and their measured IC50 readings.
Biological target: ecNOS (Homo sapiens, UniProt P29474)
Assay: NOS activity assay, ecNOS (L-[3H]citrulline formation)
Type: biochemical
Conditions: Table 5; read-out: IC50 ecNOS
Where a name gives a salt, the structure may show the parent alone.

{"columns": ["compound", "IC50"],
 "data": [
  ["CO[C@@H]1CNC(=N)C[C@@H]1C [Table 5: CH, H, (S)CH3, (S)OCH3, H, H, H, hydrochloride]", "≤ 1 µM"],
  ["CC[C@@H]1C(=N)NCC[C@@H]1C (relative stereo) [Table 5: CH, C2H5, CH3, H, H, H, H, hydrochloride]", "≤ 50 µM"]
]}

Q. So what's the measured IC50 for this one? NC1=N[C@H]2CCCC[C@H]2CC1 (relative stereo) [Table 5: CH2, H, H, cis-(CH2)4, H, H, hydrochloride]
A. ≤ 50 µM
